These measurements were taken from ChEMBL document CHEMBL4028905.

# procedure_summary: Intrinsic clearance in mouse liver microsomes at 1 uM in presence of NADPH by LC-MS/MS analysis
# Assay type: ADME, microsome
# run_conditions: read-out: CLH
Short version: CLint scaled at 1 µM at least 50 mL/min/kg is Criterion met, less is Criterion not met.

Example results:
chemical_smiles	cat
Cn1cc(-c2cc3c(cc2C(F)F)N(c2ccc4c(c2)n(C)c(=O)n4C)CCC3)cn1	Criterion met
Cn1cc(-c2cc3c(cc2C(F)F)N(c2ccc4sc(=O)n(C)c4c2)CCC3)cn1	Criterion met
Cn1cc(-c2cc3c(cc2C(F)F)N(c2cc(N4CCOCC4)c4c(c2)n(C)c(=O)n4C)CCC3)cn1	Criterion not met
CNC(=O)c1c[nH]c2cnc(N3CCCc4cc(-c5cnn(C)c5)c(C(F)F)cc43)cc12	Criterion not met

Now for another entry.
Form field: CLint scaled at 1 µM at least 50 mL/min/kg? Entry: CNC(=O)c1c[nH]c2ccc(N3CCCc4cc(-c5cnn(C)c5)c(C(F)F)cc43)cc12
Criterion not met

###

# procedure_summary: Volume of distribution at steady state in CD-1 mouse at 1 mg/kg, iv or 5 mg/kg, po by LC-MS/MS analysis
# Type: ADME, organism-based
# run_conditions: in vivo, read-out: Vdss
readout_kind: Vd (L/kg)
Give the value in L/kg but do not write L/kg after it.

Fill in reported Vd for this entry: CNC(=O)c1c[nH]c2c(C(C)C)nc(N3CCCc4cc(-c5cnn(C)c5)c(C(F)F)cc43)cc12
1.9

###

# assay_system: CREB-binding protein (Homo sapiens)
# Sequence (Q92793 whole entry): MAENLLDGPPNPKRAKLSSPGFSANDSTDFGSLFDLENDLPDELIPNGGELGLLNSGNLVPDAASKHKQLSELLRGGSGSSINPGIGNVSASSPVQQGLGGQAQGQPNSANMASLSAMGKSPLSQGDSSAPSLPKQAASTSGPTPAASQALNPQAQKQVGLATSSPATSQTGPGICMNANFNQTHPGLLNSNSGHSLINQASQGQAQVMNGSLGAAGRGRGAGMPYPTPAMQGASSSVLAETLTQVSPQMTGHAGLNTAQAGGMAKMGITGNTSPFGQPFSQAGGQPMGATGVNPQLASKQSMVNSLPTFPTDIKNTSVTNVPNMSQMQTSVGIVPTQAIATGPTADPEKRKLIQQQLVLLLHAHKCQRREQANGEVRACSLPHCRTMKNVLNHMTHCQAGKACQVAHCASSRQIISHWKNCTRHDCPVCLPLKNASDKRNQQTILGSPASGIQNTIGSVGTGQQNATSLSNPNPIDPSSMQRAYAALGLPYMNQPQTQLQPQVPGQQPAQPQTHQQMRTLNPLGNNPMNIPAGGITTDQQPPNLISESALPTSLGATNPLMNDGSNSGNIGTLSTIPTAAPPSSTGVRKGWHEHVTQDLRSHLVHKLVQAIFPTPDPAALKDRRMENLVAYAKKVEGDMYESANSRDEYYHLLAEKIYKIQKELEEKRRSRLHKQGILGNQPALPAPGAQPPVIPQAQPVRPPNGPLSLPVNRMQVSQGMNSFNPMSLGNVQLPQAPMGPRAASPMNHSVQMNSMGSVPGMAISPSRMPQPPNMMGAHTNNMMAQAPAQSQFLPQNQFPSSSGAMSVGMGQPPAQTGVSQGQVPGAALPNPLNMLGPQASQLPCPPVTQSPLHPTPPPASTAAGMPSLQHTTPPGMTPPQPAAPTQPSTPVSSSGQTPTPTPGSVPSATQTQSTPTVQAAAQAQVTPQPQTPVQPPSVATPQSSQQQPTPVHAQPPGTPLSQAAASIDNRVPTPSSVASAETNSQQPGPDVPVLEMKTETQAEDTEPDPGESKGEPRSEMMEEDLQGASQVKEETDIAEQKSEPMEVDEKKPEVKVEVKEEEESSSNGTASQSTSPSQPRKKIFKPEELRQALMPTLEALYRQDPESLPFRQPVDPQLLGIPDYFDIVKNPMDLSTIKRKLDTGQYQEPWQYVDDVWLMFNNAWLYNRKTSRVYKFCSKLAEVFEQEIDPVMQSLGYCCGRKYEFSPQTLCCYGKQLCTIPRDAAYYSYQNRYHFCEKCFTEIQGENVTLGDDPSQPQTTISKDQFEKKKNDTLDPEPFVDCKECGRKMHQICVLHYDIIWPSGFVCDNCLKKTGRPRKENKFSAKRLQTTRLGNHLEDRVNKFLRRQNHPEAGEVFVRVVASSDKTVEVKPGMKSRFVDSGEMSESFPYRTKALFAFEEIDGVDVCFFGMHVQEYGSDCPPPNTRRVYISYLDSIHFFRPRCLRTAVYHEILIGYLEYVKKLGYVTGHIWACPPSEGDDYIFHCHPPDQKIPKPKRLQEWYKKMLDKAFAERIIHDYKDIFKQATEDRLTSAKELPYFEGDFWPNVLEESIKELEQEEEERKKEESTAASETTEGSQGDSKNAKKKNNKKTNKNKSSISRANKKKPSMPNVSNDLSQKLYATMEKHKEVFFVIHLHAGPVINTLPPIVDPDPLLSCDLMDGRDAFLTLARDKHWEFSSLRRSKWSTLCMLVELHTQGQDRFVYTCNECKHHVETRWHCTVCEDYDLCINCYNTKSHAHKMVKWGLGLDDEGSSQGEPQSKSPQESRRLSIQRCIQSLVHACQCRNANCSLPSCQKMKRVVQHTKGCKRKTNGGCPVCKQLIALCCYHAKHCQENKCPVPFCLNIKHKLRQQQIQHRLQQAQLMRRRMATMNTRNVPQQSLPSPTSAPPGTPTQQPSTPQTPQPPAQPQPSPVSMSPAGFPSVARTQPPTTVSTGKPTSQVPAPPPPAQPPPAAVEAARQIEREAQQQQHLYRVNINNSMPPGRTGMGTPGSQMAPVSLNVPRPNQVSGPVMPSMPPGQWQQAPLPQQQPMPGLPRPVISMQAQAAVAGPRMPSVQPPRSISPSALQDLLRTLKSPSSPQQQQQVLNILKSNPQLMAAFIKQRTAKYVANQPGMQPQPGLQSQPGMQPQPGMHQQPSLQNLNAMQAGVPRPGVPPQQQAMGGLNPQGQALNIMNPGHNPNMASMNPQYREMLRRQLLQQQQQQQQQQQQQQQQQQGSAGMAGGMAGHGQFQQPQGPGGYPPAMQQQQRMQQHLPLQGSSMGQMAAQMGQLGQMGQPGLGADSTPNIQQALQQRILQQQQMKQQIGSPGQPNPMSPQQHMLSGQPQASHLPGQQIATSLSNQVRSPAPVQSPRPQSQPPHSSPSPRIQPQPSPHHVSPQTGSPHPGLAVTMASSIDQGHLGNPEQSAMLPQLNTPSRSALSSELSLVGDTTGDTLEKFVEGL
# procedure_summary: Inhibition of His tagged recombinant CBP (unknown origin) by TR-FRET assay
Recorded IC50 by entry
Give the value in nM but do not write nM after it.

Examples with answers:
molecule	IC50 [nM]
C[C@@H]1CC(=O)Nc2cccc(N3CCCc4cc(-c5cnn(C)c5)c(C(F)F)cc43)c2N1	3.4
COC(=O)c1c[nH]c2ccccc12	99000
CCOC(=O)c1cnc2ccc(C(=O)OC)cc2c1Nc1cccc(C(=O)O)c1	230
CNC(=O)c1c[nH]c2c(C(C)C)nc(N3CCCc4cc(-c5cnn(C)c5)c(C(F)F)cc43)cc12	2.2
CCC(=O)N1CCCc2cc(NS(=O)(=O)c3ccc(F)cc3C)ccc21	3000
CNC(=O)c1c[nH]c2ccc(N3CCCc4cc(-c5cnn(C)c5)c(C(F)F)cc43)cc12	9.5
CC(=O)N1CCCc2cc(N3CCCc4cc(-c5cnn(C)c5)c(C(F)F)cc43)ccc21	450
Cn1cc(-c2cc3c(cc2C(F)F)N(c2cc(N4CCOCC4)c4c(c2)n(C)c(=O)n4C)CCC3)cn1	3.6

Fill in reported IC50 for this entry: CNC(=O)N1CCOc2ccc(N3CCCc4cc(-c5cnn(C)c5)c(C(F)F)cc43)cc2C1
13

Fill in reported IC50 for this entry: CC(=O)N1CCc2c(cc(-c3cccc(Cl)c3)c(=O)n2CC2CC2)C1
540

Fill in reported IC50 for this entry: CN1C(=O)CCc2ccc(N3CCCc4cc(-c5cnn(C)c5)c(C(F)F)cc43)cc21
38

Fill in reported IC50 for this entry: CNC(=O)c1cnn2c(C3CCCN3)ccnc12 (configuration not stated)
32000

Fill in reported IC50 for this entry: CNC(=O)Nc1cc(OC)cc(NC(=O)NS(=O)(=O)c2cc(C)c(CCOC)s2)n1
270

Fill in reported IC50 for this entry: Cn1cc(-c2cc3c(cc2C(F)F)N(c2ccc4c(c2)n(C)c(=O)n4C)CCC3)cn1
20

Fill in reported IC50 for this entry: Cc1ccc(S(=O)(=O)Nc2ccc3c(c2)CCC(=O)N3C)s1
23000

Fill in reported IC50 for this entry: CNC(=O)c1cnn2ccc(N3CCCc4cc(-c5cnn(C)c5)c(C(F)F)cc43)nc12
1400
